# experimental.protocol: Example 1 single-dose plasma pharmacokinetics after intranasal administration
# Assay type: in vivo, human
# condition.label: both sexes, human, plasma, inhaled or intranasal, 160 mg, healthy subjects; single intranasal 160 mg cocaine HCl; plasma; read-out: AUCinf (Mean)
measured.property: AUC(0-inf) (ng·h/mL)
Numbers only, in ng·h/mL.

Check the records and state AUC(0-inf) for COC(=O)[C@H]1[C@@H](OC(=O)c2ccccc2)C[C@@H]2CC[C@H]1N2C [Cocaine, cocaine, reference compound] 54.9

###

# experimental.protocol: Example 3 plasma pharmacokinetics, normal hepatic function vs hepatic impairment
# condition.label: both, human, plasma, inhaled or intranasal, 160 mg, Tmax (Median), hepatic impairment; single intranasal 160 mg cocaine HCl
measured.property: Tmax (min)
One number for each entry, in min.

// Input: COC(=O)[C@H]1[C@@H](OC(=O)c2ccccc2)C[C@@H]2CC[C@H]1N2C [Cocaine, cocaine, reference compound] . Output its Tmax only. 45

###

# experimental.protocol: Example 1 single-dose plasma pharmacokinetics after intranasal administration
# Assay type: in vivo, human
# condition.label: male, human, plasma, inhaled or intranasal, 160 mg, Male healthy subjects; single intranasal 160 mg cocaine HCl; plasma; read-out: AUClast (Geometric mean)
measured.property: AUC(0-t) (ng·h/mL)
One number for each entry, in ng·h/mL.

Give the reported value of AUC(0-t) for this record: COC(=O)[C@H]1[C@@H](OC(=O)c2ccccc2)C[C@@H]2CC[C@H]1N2C [Cocaine, cocaine, reference compound] 29.1

###

# experimental.protocol: Example 2 urinary pharmacokinetics, normal renal function vs severe renal impairment
# condition.label: human, urine and plasma, inhaled or intranasal, 160 mg, Renal Clearance, CLr (mean), severe renal impairment; single intranasal 160 mg cocaine HCl
measured.property: CL renal (mL/min)
One number for each entry, in mL/min.

Give a short answer stating reported CL renal for COC(=O)[C@H]1[C@@H](OC(=O)c2ccccc2)C[C@@H]2CC[C@H]1N2C [Cocaine, cocaine, reference compound] . 20.3

###

# experimental.protocol: Example 2 plasma pharmacokinetics, normal renal function vs severe renal impairment
# condition.label: both, human, plasma, inhaled or intranasal, 160 mg, Tmax (Mean), normal renal function; single intranasal 160 mg cocaine HCl
measured.property: Tmax (min)
Numbers only, in min.

Report Tmax, nothing else, for this compound: COC(=O)[C@H]1[C@@H](OC(=O)c2ccccc2)C[C@@H]2CC[C@H]1N2C [Cocaine, cocaine, reference compound] 35

###

# experimental.protocol: Example 1 single-dose plasma pharmacokinetics after intranasal administration
# Format: in vivo, human
# condition.label: both sexes, human, plasma, inhaled or intranasal, 160 mg, healthy subjects; single intranasal 160 mg cocaine HCl; plasma; read-out: Tmax (Geometric Mean)
measured.property: Tmax (min)
Give bare numbers, in min.

For COC(=O)[C@H]1[C@@H](OC(=O)c2ccccc2)C[C@@H]2CC[C@H]1N2C [Cocaine, cocaine, reference compound] , write its Tmax. 22.4

###

# experimental.protocol: Example 3 urinary pharmacokinetics, normal hepatic function vs hepatic impairment
# Assay type: in vivo, human
# condition.label: both sexes, human, urine, other: intranasal (drug-soaked pledgets in the nasal cavity), 160 mg, subjects with hepatic impairment, Table 30; read-out: Renal Clearance, geometric mean (converted)
measured.property: CL renal
Number plus unit, in that order.

Please supply the value of reported CL renal for the item COC(=O)[C@H]1[C@@H](OC(=O)c2ccccc2)C[C@@H]2CC[C@H]1N2C [Cocaine, cocaine, reference compound] 7.79 mL/min

###

# experimental.protocol: Example 1 single-dose plasma pharmacokinetics after intranasal administration
# Type: in vivo, human
# condition.label: both sexes, human, plasma, inhaled or intranasal, 160 mg, healthy subjects; single intranasal 160 mg cocaine HCl; plasma; read-out: MRT (Geometric Mean)
measured.property: MRT (h)
Numbers only, in h.

Give the measured MRT for COC(=O)[C@H]1[C@@H](OC(=O)c2ccccc2)C[C@@H]2CC[C@H]1N2C [Cocaine, cocaine, reference compound] 1.5

###

# experimental.protocol: Example 2 plasma pharmacokinetics, normal renal function vs severe renal impairment
# condition.label: both, human, plasma, inhaled or intranasal, 160 mg, AUC0→t (Geometric mean), normal renal function; single intranasal 160 mg cocaine HCl
measured.property: AUC(0-t) (ng·h/mL)
Answers are plain numbers, in ng·h/mL.

Kindly indicate its recorded AUC(0-t). Item: COC(=O)[C@H]1[C@@H](OC(=O)c2ccccc2)C[C@@H]2CC[C@H]1N2C [Cocaine, cocaine, reference compound] 78.7

###

# experimental.protocol: Example 3 plasma pharmacokinetics, normal hepatic function vs hepatic impairment
# condition.label: both, human, plasma, inhaled or intranasal, 160 mg, AUC0→t (Median), normal hepatic function; single intranasal 160 mg cocaine HCl
measured.property: AUC(0-t) (ng·h/mL)
Give bare numbers, in ng·h/mL.

Give recorded AUC(0-t). COC(=O)[C@H]1[C@@H](OC(=O)c2ccccc2)C[C@@H]2CC[C@H]1N2C [Cocaine, cocaine, reference compound] 82.4

###

# experimental.protocol: Example 1 single-dose plasma pharmacokinetics after intranasal administration
# Format: in vivo, human
# condition.label: both sexes, human, plasma, inhaled or intranasal, 160 mg, healthy subjects; single intranasal 160 mg cocaine HCl; plasma; read-out: Vd/F (Mean)
measured.property: Vd/F (L)
Answers are plain numbers, in L.

Please indicate Vd/F recorded for COC(=O)[C@H]1[C@@H](OC(=O)c2ccccc2)C[C@@H]2CC[C@H]1N2C [Cocaine, cocaine, reference compound] 3880

###

# experimental.protocol: Example 1 single-dose plasma pharmacokinetics after intranasal administration
# Type: in vivo, human
# condition.label: female, human, plasma, inhaled or intranasal, 160 mg, Female healthy subjects; single intranasal 160 mg cocaine HCl; plasma; read-out: AUCinf (Median)
measured.property: AUC(0-inf) (ng·h/mL)
Numbers only, in ng·h/mL.

Please report the measured AUC(0-inf) for COC(=O)[C@H]1[C@@H](OC(=O)c2ccccc2)C[C@@H]2CC[C@H]1N2C [Cocaine, cocaine, reference compound] 57.6

###

# experimental.protocol: Example 2 plasma pharmacokinetics, normal renal function vs severe renal impairment
# condition.label: both, human, plasma, other: intranasal (drug-soaked pledgets in the nasal cavity), 160 mg, Tmax, range observed, renally impaired patients
measured.property: Tmax

Using the record for COC(=O)[C@H]1[C@@H](OC(=O)c2ccccc2)C[C@@H]2CC[C@H]1N2C [Cocaine, cocaine, reference compound] , state its measured Tmax. 18.1 to 35.7 min

###

# experimental.protocol: Example 1 single-dose plasma pharmacokinetics after intranasal administration
# Assay type: in vivo, human
# condition.label: human, plasma, inhaled or intranasal, 160 mg, healthy subjects; single intranasal 160 mg cocaine HCl; plasma; read-out: Tmax (Mean)
measured.property: Tmax (min)
One number for each entry, in min.

Report measured Tmax; entry is COC(=O)[C@H]1[C@@H](OC(=O)c2ccccc2)C[C@@H]2CC[C@H]1N2C [Cocaine, cocaine, reference compound] 25.8

###

# experimental.protocol: Example 3 plasma pharmacokinetics, normal hepatic function vs hepatic impairment
# condition.label: both, human, plasma, inhaled or intranasal, 160 mg, Tmax (Mean), normal hepatic function; single intranasal 160 mg cocaine HCl
measured.property: Tmax (min)
Numbers only, in min.

Give the reported Tmax for this compound. COC(=O)[C@H]1[C@@H](OC(=O)c2ccccc2)C[C@@H]2CC[C@H]1N2C [Cocaine, cocaine, reference compound] 25.9

###

# experimental.protocol: Example 3 plasma pharmacokinetics, normal hepatic function vs hepatic impairment
# condition.label: both, human, plasma, inhaled or intranasal, 160 mg, AUC0→t (Median), hepatic impairment; single intranasal 160 mg cocaine HCl
measured.property: AUC(0-t) (ng·h/mL)
Numbers only, in ng·h/mL.

Quickly give me recorded AUC(0-t) for COC(=O)[C@H]1[C@@H](OC(=O)c2ccccc2)C[C@@H]2CC[C@H]1N2C [Cocaine, cocaine, reference compound] 176

###

# experimental.protocol: Example 2 plasma pharmacokinetics, normal renal function vs severe renal impairment
# condition.label: both, human, plasma, inhaled or intranasal, 160 mg, Cmax (Geometric Least Squares Mean, ANOVA), Impaired renal function (severe); single intranasal 160 mg cocaine HCl
measured.property: Cmax (ng/mL)
Give bare numbers, in ng/mL.

For the compound COC(=O)[C@H]1[C@@H](OC(=O)c2ccccc2)C[C@@H]2CC[C@H]1N2C [Cocaine, cocaine, reference compound] , give its reported Cmax. 47.9

###

# experimental.protocol: Example 3 urinary pharmacokinetics, normal hepatic function vs hepatic impairment
# Type: in vivo, human
# condition.label: both sexes, human, urine, other: intranasal (drug-soaked pledgets in the nasal cavity), 160 mg, subjects with normal hepatic function; read-out: Renal Clearance, geometric mean (converted)
measured.property: CL renal (mL/min)
Numbers only, in mL/min.

Consider the compound COC(=O)[C@H]1[C@@H](OC(=O)c2ccccc2)C[C@@H]2CC[C@H]1N2C [Cocaine, cocaine, reference compound] and give its recorded CL renal. 19.5

###

# experimental.protocol: Example 1 single-dose plasma pharmacokinetics after intranasal administration
# Type: in vivo, human
# condition.label: male, human, plasma, inhaled or intranasal, 160 mg, Male healthy subjects; single intranasal 160 mg cocaine HCl; plasma; read-out: t1/2 (Mean) (converted)
measured.property: half-life (min)
One number for each entry, in min.

// Input: COC(=O)[C@H]1[C@@H](OC(=O)c2ccccc2)C[C@@H]2CC[C@H]1N2C [Cocaine, cocaine, reference compound] . Output its half-life only. 63.6

Data origin, for the record: patent US10413505B1
